Data credit: ChEMBL document CHEMBL4513216

System: Plasmodium berghei
Test: Screen against P. berghei liver stage (PbLuc), transformed with Luciferase, at 10uM
Assay type: functional, HepG2
Conditions: tested at 10 uM
The campaign covered roughly 69,000 compounds. About 8,600 (12%) showed an effect of 50% or more. Only a selection was taken, and strong results are over-represented in it overall.

# compound, unit-annotation, INHIBITION
measured = [
    ("Cc1sc(CNS(N)(=O)=O)nc1-c1ccc(Cl)cc1", "%", -20.6),
    ("CS(=O)(=O)c1ccc(CNC(=O)N2CCC(C(N)=O)CC2)cc1", "%", -60.8),
    ("CCNC(=O)N(CCCO)C1CCCc2ccccc21 (stereo not given)", "%", 45.7),
    ("O=C(c1ncccn1)N1C[C@@H]2CN(CC3CC3)CCO[C@@H]2C1", "%", 31.9),
    ("CCOc1ccc(N2CCCN=C2NC(=O)c2ccc(OC)cc2)cc1", "%", -8.07),
    ("CC(C)Oc1cccc(CN(C)C(=O)Nc2cccn(C)c2=O)c1", "%", -15),
    ("CN1CCC(N2CCCC(C(=O)N3Cc4ccccc4C3)C2)CC1 (stereo not given)", "%", 10.6),
    ("COC1CN(C(=O)OCC(C)C)CCC(=O)N(C)c2ccccc21 (stereo not given)", "%", 52.5),
    ("COC1CN(C(=O)CC(C)C)CCC(=O)N(C)c2ccccc21 (stereo not given)", "%", 1.8),
    ("Cn1cc(N2CCC3(CCN(S(=O)(=O)C4CC4)C3)C2=O)cn1 (stereo not given)", "%", 15.1),
    ("CC(=O)N1CCO[C@@H]2CN(C(=O)c3ccc4ccccc4c3)CC[C@@H]2C1", "%", -57.1),
    ("CN1CCO[C@@H]2CN(C(=O)c3ccc4ncccc4c3)CC[C@@H]2C1", "%", 58.4),
    ("COC1CN(C(=O)NC2CCCC2)CCC(=O)N(C)c2ccccc21 (stereo not given)", "%", 56.3),
    ("CCc1noc(C2CC(=O)N(CCN(C)C)C2)n1 (stereo not given)", "%", 35.1),
    ("CCNC(=O)[C@@H]1C[C@H](N)CN1Cc1ccc2cccc(Cl)c2n1", "%", 35.4),
    ("COc1ccccc1C(=O)Nc1c(F)c(C(=O)NCCC(C)C)nn1C", "%", 57),
    ("COc1ccc(CNCC(O)c2cccc(O)c2)cc1Br (stereo not given)", "%", 14.5),
    ("CCc1nnc(CN(C)c2nccc(CCC(F)(F)F)n2)o1", "%", 59.3),
    ("COCC1CC2(CCN(C(=O)c3cncc(C)c3)CC2)CO1 (stereo not given)", "%", -26.1),
    ("CN(Cc1ccncn1)c1nccc(CCC(F)(F)F)n1", "%", 59.3),
    ("CCOc1ccc(N2CCCN=C2NC(=O)c2cccc(C)c2)cc1", "%", 54),
    ("CN(CCOc1ccccc1)C(=O)Nc1cccn(C)c1=O", "%", 82.4),
    ("CC(=O)NCCNc1nccc(CCC(F)(F)F)n1", "%", -41.8),
    ("CC(=O)N1CCO[C@@H]2CN(C(=O)c3ccc4ncccc4c3)CC[C@@H]2C1", "%", 49.1),
    ("CCOc1ccc(N2CCCN=C2NC(=O)c2ccc(Cl)cc2)cc1", "%", 19.3),
    ("CCc1cc(N(C)Cc2ccncn2)n2nccc2n1", "%", 10.4),
    ("CCN(Cc1ccc2c(c1)OCCO2)C(=O)c1ccc(C)[nH]c1=O", "%", -4.43),
    ("CNC(=O)CCc1cc(C2CCCN2S(C)(=O)=O)nc(C)n1 (stereo not given)", "%", 6.33),
    ("CC(=O)N1CCn2c(nnc2C2CCCCN2C(C)=O)C1 (stereo not given)", "%", -55),
    ("CCN(CC)S(=O)(=O)c1ccc(CNC(=O)N2CCC(C#N)CC2)cc1", "%", 45.7),
    ("Cc1cc(-c2cnn(CCNC(=O)Cc3ccccn3)c2C2CC2)on1", "%", 60.4),
    ("CCOc1ccc(N2CCCN=C2NC(=O)c2cccc(OC)c2)cc1", "%", 54.9),
    ("COC1CN(C(=O)Nc2ccccc2)CCC(=O)N(C)c2ccccc21 (stereo not given)", "%", 13.1),
    ("CC(=O)N1CCO[C@@H]2CN(C(=O)c3ccccc3)CC[C@@H]2C1", "%", 12.1),
    ("c1cnc2c(c1)cc([C@@H]1CCCO1)n2CCN1CCOCC1", "%", 0.301),
    ("CCOc1ccc(CNCC(O)c2ccccc2)cc1Cl (stereo not given)", "%", 59.5),
    ("CCOc1ccccc1CCC(=O)Nc1c(C)nn(C)c1C", "%", 22.6),
    ("Cc1cc(-c2cnn(CCNC(=O)C3CC3)c2C2CC2)on1", "%", 59.7),
    ("Cc1ccc(C(=O)Nc2ccc(N(C)C)nc2)n1C", "%", -130),
    ("COCCN1CCO[C@@H]2CN(C(=O)c3ccc4[nH]ccc4c3)CC[C@@H]2C1", "%", 1.36),
]
